Tyrosine-protein kinase Lck (Homo sapiens): recorded IC50 for assorted molecules
Sequence (P06239 whole entry): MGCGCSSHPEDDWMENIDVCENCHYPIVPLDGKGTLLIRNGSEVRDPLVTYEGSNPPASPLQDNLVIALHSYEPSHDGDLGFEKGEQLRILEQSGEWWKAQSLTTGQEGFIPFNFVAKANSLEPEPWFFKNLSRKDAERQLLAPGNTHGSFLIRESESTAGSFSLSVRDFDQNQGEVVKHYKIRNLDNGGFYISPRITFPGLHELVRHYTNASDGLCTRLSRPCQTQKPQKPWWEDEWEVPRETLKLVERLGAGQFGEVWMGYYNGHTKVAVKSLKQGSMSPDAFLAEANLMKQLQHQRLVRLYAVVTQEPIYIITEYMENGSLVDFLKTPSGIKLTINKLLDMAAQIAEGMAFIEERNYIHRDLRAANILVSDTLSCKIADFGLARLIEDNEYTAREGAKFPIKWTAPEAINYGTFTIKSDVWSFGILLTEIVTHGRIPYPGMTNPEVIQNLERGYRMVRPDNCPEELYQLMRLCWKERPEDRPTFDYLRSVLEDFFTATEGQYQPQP

structure.string: COc1cc(C)ccc1Oc1nc(Nc2ccc(N3CCOCC3)cc2)ncc1/N=C/c1cccc(OC(C)C)c1
censoring.sign: =
IC50 / nM: 39
--
structure.string: COc1cc(NC(=O)Nc2cnc(Nc3ccc(N4CCOCC4)cc3)nc2Oc2ccc(C)cc2OC)cc(OC)c1
censoring.sign: =
IC50 / nM: 502
--
structure.string: COc1ccc(OC)c(/C=N/c2cnc(Nc3ccc(N4CCOCC4)cc3)nc2Oc2ccc(C)cc2OC)c1
censoring.sign: =
IC50 / nM: 110
--
structure.string: COc1cc(C)ccc1Oc1nc(Nc2ccc(N3CCOCC3)cc2)ncc1NCc1cc(C(F)(F)F)cc(C(F)(F)F)c1
censoring.sign: =
IC50 / nM: 11600
--
structure.string: COc1cc(C)ccc1Oc1nc(Nc2ccc(N3CCOCC3)cc2)ncc1NC(=O)Nc1cc(C(F)(F)F)cc(C(F)(F)F)c1
censoring.sign: >
IC50 / nM: 100000
--
structure.string: COc1cc(C)ccc1Oc1nc(Nc2ccc(N3CCOCC3)cc2)ncc1/N=C/c1cc(Cl)cc(Cl)c1
censoring.sign: =
IC50 / nM: 6.5
--
structure.string: COc1ccc(NC(=O)Nc2cnc(Nc3cc(OC)cc(OC)c3)nc2Oc2ccc(C)cc2OC)cc1
censoring.sign: >
IC50 / nM: 100000
--
structure.string: COc1ccc(Oc2nc(Nc3ccc(N4CCOCC4)cc3)ncc2/N=C/c2cc(OC)cc(OC)c2)cc1
censoring.sign: =
IC50 / nM: 22
--
structure.string: COc1cc(C)ccc1Oc1nc(Nc2ccc(N3CCOCC3)cc2)ncc1/N=C/c1cccc(OC(F)(F)F)c1
censoring.sign: =
IC50 / nM: 33.5
--
structure.string: COc1cc(C)ccc1Oc1nc(Nc2ccc(N3CCOCC3)cc2)ncc1/N=C/c1cccc(Cl)c1
censoring.sign: =
IC50 / nM: 62
